B1: tRNA (parent)
chain: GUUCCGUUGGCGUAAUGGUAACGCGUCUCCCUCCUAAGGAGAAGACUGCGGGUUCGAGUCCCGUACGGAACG

# Variants of: B1
# Method: yeast fitness relative to wild type (ratio to wild type); higher = fitter; tRNA-Arg(CCU), competitive growth, 37 C, YPD
Variants at the floor of the assay were thinned out.
Property name: yeast fitness
Give bare numbers.

[
  {
    "Mutation list": "A40U G44A A65U",
    "Reported measurement": 0.51
  },
  {
    "Mutation list": "C29G A40U C66G",
    "Reported measurement": 0.551
  },
  {
    "Mutation list": "C4G A65U G68U",
    "Reported measurement": 1.11
  }
]

Give yeast fitness for each listed item.
1. G9C U53C
2. A40U A45U G48A

Response:
1. 0.59
2. 0.998

Take each entry in turn and give its yeast fitness.
1. U2C C22G C31U A36U C49U
2. G6A A20G C30G U35A G50A A65C
3. G9A U53G

Response:
1: 0.649; 2: 0.517; 3: 0.661
